Reported activity at 0.1 µg/mL values for the following molecules.
- System: T cells
- ASSAY_REMARKS: T cell proliferation (Test 1), thymidine uptake of Concanavalin A-treated T cells
- Assay type: cell-based, rat (female Fisher 344)
- MEASUREMENT_CONTEXT: Rattus norvegicus, 72 h, concentration of compound 0.1 μg/ml, 3 days, untreated cells = 100, read-out: Rate of stimulating proliferation of T cells
READOUT_TYPE: activity at 0.1 µg/mL

molecule="COC(=O)C(CSC)NC(=O)C(O)C(C)C(C)O (stereo not shown)" experimental_target="T cells" readout_type="activity at 0.1 µg/mL" result=268%
molecule="CC(O)CCC(=O)NC(C)(CO)C(=O)O (stereo not shown)" experimental_target="T cells" readout_type="activity at 0.1 µg/mL" result=123%
molecule="CC(C)CC(NC(=O)C(O)C(C)C(C)O)C(=O)O (stereo not shown)" experimental_target="T cells" readout_type="activity at 0.1 µg/mL" result=175%
molecule="CC(CO)(NC(=O)C(O)C(C)(C)CO)C(=O)OCc1ccccc1 (stereo not shown)" experimental_target="T cells" readout_type="activity at 0.1 µg/mL" result=350%
molecule="CC(C)C(O)C(C)C(O)C(=O)NC(C)(CO)C(=O)OCc1ccccc1 (stereo not shown)" experimental_target="T cells" readout_type="activity at 0.1 µg/mL" result=201%
molecule="CC(CO)(NC(=O)C(O)C(C)(C)CO)C(=O)O (stereo not shown)" experimental_target="T cells" readout_type="activity at 0.1 µg/mL" result=405%
molecule="CC(C)CC(NC(=O)C(O)C(C)C(C)O)C(=O)OCc1ccccc1 (stereo not shown)" experimental_target="T cells" readout_type="activity at 0.1 µg/mL" result=231%
molecule="CC(C)C(O)C(=O)NC(C)(CO)C(=O)OCc1ccccc1 (stereo not shown)" experimental_target="T cells" readout_type="activity at 0.1 µg/mL" result=251%
molecule="CC(C)C(O)C(C)C(O)C(=O)NC(C)(CO)C(=O)O (stereo not shown)" experimental_target="T cells" readout_type="activity at 0.1 µg/mL" result=200%
molecule="CC(O)C(C)C(O)C(=O)NC(CO)C(=O)O (stereo not shown)" experimental_target="T cells" readout_type="activity at 0.1 µg/mL" result=394%

* * *

- Test system: T cells
- ASSAY_REMARKS: T cell proliferation (Test 1), thymidine uptake of Concanavalin A-treated T cells
- Format: cell-based, rat (female Fisher 344)
- MEASUREMENT_CONTEXT: Rattus norvegicus, 72 h, concentration of compound 0.1 μg/ml, 3 days, untreated cells = 100, read-out: Rate of stimulating proliferation of T cells
READOUT_TYPE: activity at 0.1 µg/mL (%)

molecule="CC(O)CC(=O)NC(C)(COCc1ccccc1)C(=O)OCc1ccccc1 (centres unmarked)" experimental_target="T cells" readout_type="activity at 0.1 µg/mL" numeric_readout=142
molecule="CC(O)CC(=O)NC(C)(CO)C(=O)O (centres unmarked)" experimental_target="T cells" readout_type="activity at 0.1 µg/mL" numeric_readout=313
molecule="CC(O)C(C)C(O)C(=O)NC(CSCc1ccccc1)C(=O)OCc1ccccc1 (centres unmarked)" experimental_target="T cells" readout_type="activity at 0.1 µg/mL" numeric_readout=153
molecule="CC(O)C(C)C(O)C(=O)NC(CO)C(=O)OCc1ccccc1 (centres unmarked)" experimental_target="T cells" readout_type="activity at 0.1 µg/mL" numeric_readout=265
molecule="CCC(C)CC(=O)NC(C)(CO)C(=O)O (centres unmarked)" experimental_target="T cells" readout_type="activity at 0.1 µg/mL" numeric_readout=292
